Origin of values: patent US20030196279A1

Test system: pectate lyase
TEST_PROTOCOL: Compatibility of pectate lyase with dyes, vibration viscometry assay on polygalacturonic acid
Assay type: biochemical
CONDITION_NOTES: 0.5 ml of 10 g/l dye solution added; pH 8.5, 40° C., 20 minutes; relative to none-dye control
The following compounds are listed with their measured % Activity (relative pectate lyase activity) values.
VALUE_TYPE: % Activity (relative pectate lyase activity) (%)

INSERT INTO assay_data (smiles_code, unit_abbreviation, experimental_result) VALUES
  ('CC(=O)Nc1ccc2cc(S(=O)(=O)O)c(N=Nc3ccc(S(=O)(=O)CCOS(=O)(=O)O)cc3)c(O)c2c1.[Na]', '%', 110.1),
  ('Nc1c(S(=O)(=O)[O-])cc(Nc2cccc(S(=O)(=O)CCOS(=O)(=O)[O-])c2)c2c1C(=O)c1ccccc1C2=O.[Na+].[Na+]', '%', 200.9),
  ('C=C(Br)C(=O)Nc1ccc(N=Nc2c(NC)ccc3cc(S(=O)(=O)[O-])cc(O)c23)c(S(=O)(=O)[O-])c1.[Na+].[Na+]', '%', 117.6),
  ('Nc1c(N=Nc2ccc(S(=O)(=O)CCOS(=O)(=O)[O-])cc2)c(S(=O)(=O)[O-])cc2cc(S(=O)(=O)[O-])c(N=Nc3ccc(S(=O)(=O)CCOS(=O)(=O)[O-])cc3)c(O)c12.[Na+].[Na+].[Na+].[Na+]', '%', 114.8);
